Molecular target: Recombinant human MAO-A (Homo sapiens)
Construct: purchased BD Biosciences (MA, USA)
Sequence (P21397 whole entry): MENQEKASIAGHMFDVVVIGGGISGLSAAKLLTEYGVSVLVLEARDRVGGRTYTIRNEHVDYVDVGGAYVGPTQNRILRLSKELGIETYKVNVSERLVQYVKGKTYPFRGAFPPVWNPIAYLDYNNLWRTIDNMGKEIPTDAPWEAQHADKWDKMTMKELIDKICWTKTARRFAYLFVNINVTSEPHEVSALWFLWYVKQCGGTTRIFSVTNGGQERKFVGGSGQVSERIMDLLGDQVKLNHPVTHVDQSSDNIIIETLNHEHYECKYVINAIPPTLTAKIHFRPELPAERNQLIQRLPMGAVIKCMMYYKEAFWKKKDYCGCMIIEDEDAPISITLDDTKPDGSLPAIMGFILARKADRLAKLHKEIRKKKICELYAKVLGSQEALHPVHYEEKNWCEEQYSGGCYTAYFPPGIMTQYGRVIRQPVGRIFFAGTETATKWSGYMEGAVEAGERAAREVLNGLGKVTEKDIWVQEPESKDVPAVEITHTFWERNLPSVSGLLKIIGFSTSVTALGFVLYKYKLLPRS
Assay: MAO-A activity, colorimetric method, tyramine substrate
Format: biochemical
Conditions: ratio of IC50 for MAO-A to IC50 for SSAO
Procedure: The specificities of the different SSAO inhibitors was tested by determining their abilities to inhibit MAO-A and MAO-B activities in vitro. Recombinant human MAO-A and human MAO-B enzymes were obtained from BD Biosciences (MA, USA). MAO activity was measured using the colorimetric method essentially as described (Holt, A. et al. (1997) Anal. Biochem. 244: 384). A pre-determined amount of inhibitor diluted in 0.2M potassium phosphate buffer, pH 7.6, was added to each well, if required. […]
Counter-ions that a name gives are not always drawn.
Reported Specificity of SSAO on MAO-A values are given for each entry in this list.

1) COc1ccc(C/C(=C/F)CN)cc1.Cl [Compound I-1-Z] :: 4700
2) Cl.NC/C(=C\F)Cc1ccc(Cl)cc1 [Compound I-3-Z] :: 3250
3) CCOc1ccc(CC/C(=C\Cl)CN)cc1.Cl [Compound I-45-Z] :: 143
4) CSc1ccc(C/C(=C/F)CN)cc1.Cl [Compound I-9-Z] :: 8385
5) NC/C(F)=C\Cc1cc(F)cc(C(F)(F)F)c1 [II-1-E] :: >2400

Enquiry: Under Recombinant human MAO-A (Homo sapiens): Specificity of SSAO on MAO-A value of COc1cccc(C/C(=C/F)CN)c1.Cl [Compound I-5-Z] ?
Return: 2643

Enquiry: Under Recombinant human MAO-A (Homo sapiens): Specificity of SSAO on MAO-A value of Cl.NC/C(F)=C\Cc1ccc(F)cc1 [II-5-E] ?
Return: >3333

Enquiry: Under Recombinant human MAO-A (Homo sapiens): Specificity of SSAO on MAO-A value of Cl.NC/C(F)=C\Cc1cccc(OC(F)(F)F)c1 [II-10-E] ?
Return: 48330

Enquiry: Under Recombinant human MAO-A (Homo sapiens): Specificity of SSAO on MAO-A value of Cl.NC/C(=C\F)Cc1cccc(F)c1 [Compound I-19-Z] ?
Return: 1360

Enquiry: Under Recombinant human MAO-A (Homo sapiens): Specificity of SSAO on MAO-A value of CC(C)Oc1ccc(C/C(=C\F)CN)cc1 [Compound I-8-E, hydrochloride] ?
Return: 4211

Enquiry: Under Recombinant human MAO-A (Homo sapiens): Specificity of SSAO on MAO-A value of Cl.NC/C(F)=C\Cc1cccc(SC(F)(F)F)c1 [II-15-E] ?
Return: >34780

---

Counter-ions that a name gives are not always drawn.
Reported melting point values are given for each entry in this list.

Use the examples below as a reference point.
1. NC/C(=C\Cl)CCc1ccc(F)cc1 (as salt: trifluoroacetate) :: 69 to 70 °C
2. CS(=O)(=O)c1ccc(C/C(=C/F)CN)cc1 (as salt: trifluoroacetate) :: 49 to 50 °C
3. NC/C(=C\F)CCc1cc(F)cc(C(F)(F)F)c1.O=C(O)C(F)(F)F :: 56 to 57 °C
4. NC/C(=C\F)CCc1cccc(F)c1.O=C(O)C(F)(F)F :: 47 to 48 °C
5. COc1ccc(CC/C(=C/Cl)CN)cc1 (as salt: hydrochloride) :: 123 to 124 °C

Enquiry: Would you mind telling me what melting point value was observed for COc1cccc(C(C)/C=C(/F)CN)c1.Cl (stereo not drawn) ?
Return: 133 to 134 °C

Enquiry: Would you mind telling me what melting point value was observed for CCCCOc1ccc(CC/C(=C\Cl)CN)cc1.Cl ?
Return: 132 to 133 °C

Enquiry: Would you mind telling me what melting point value was observed for NC/C(=C\F)Cc1ccc(F)c(Cl)c1 (as salt: hydrochloride) ?
Return: 163 to 164 °C

Enquiry: Would you mind telling me what melting point value was observed for CCOc1ccc(C/C(=C\F)CN)cc1.Cl ?
Return: 167 to 168 °C

Enquiry: Would you mind telling me what melting point value was observed for NC/C(=C\Cl)CCc1ccc(Cl)cc1 (as salt: trifluoroacetate) ?
Return: 89 to 90 °C

Enquiry: Would you mind telling me what melting point value was observed for NC/C(=C\F)Cc1ccc(F)c(F)c1 (as salt: hydrochloride) ?
Return: 141 to 142 °C

Enquiry: Would you mind telling me what melting point value was observed for Cl.NC/C(F)=C\Cc1cc(C(F)(F)F)cc(C(F)(F)F)c1 ?
Return: 197 to 198 °C

Enquiry: Would you mind telling me what melting point value was observed for CC(C)Oc1ccc(C/C(=C/F)CN)cc1.Cl ?
Return: 147 to 148 °C

Enquiry: Would you mind telling me what melting point value was observed for NC/C(=C\F)Cc1ccc(F)cc1F (as salt: hydrochloride) ?
Return: 130 to 131 °C

Enquiry: Would you mind telling me what melting point value was observed for CCOc1ccc(C/C(=C/F)CN)cc1.Cl ?
Return: 153 to 154 °C

Enquiry: Would you mind telling me what melting point value was observed for Cl.NC/C(F)=C\Cc1ccccc1 ?
Return: 120 to 121 °C

Enquiry: Would you mind telling me what melting point value was observed for Cc1ccc(CC/C(=C/Cl)CN)cc1.Cl ?
Return: 135 °C (dec.)

Enquiry: Would you mind telling me what melting point value was observed for COc1ccccc1C/C=C(/F)CN.Cl ?
Return: 133 to 134 °C

Enquiry: Would you mind telling me what melting point value was observed for Cl.NC/C(F)=C\Cc1ccc(F)cc1 ?
Return: 213 to 214 °C

Enquiry: Would you mind telling me what melting point value was observed for COc1cccc(CC/C(=C\Cl)CN)c1.Cl ?
Return: 85 to 87 °C

Enquiry: Would you mind telling me what melting point value was observed for NC/C(=C\F)Cc1cccc(C(F)(F)F)c1 (as salt: hydrochloride) ?
Return: 161 to 162 °C

---

Counter-ions that a name gives are not always drawn.
Reported melting point values are given for each entry in this list.

1. NC/C(=C/Cl)CCc1ccccc1 (as salt: hydrochloride) :: 97 to 98 °C
2. CC(C)c1ccc(C/C(=C\F)CN)cc1.Cl :: 175 to 176 °C
3. Cl.NC/C(=C\F)Cc1ccc(Cl)cc1 :: 145 to 146 °C

Enquiry: Would you mind telling me what melting point value was observed for NC/C(=C\F)Cc1cc(F)cc(Cl)c1 (as salt: hydrochloride) ?
Return: 158 to 159 °C

Enquiry: Would you mind telling me what melting point value was observed for NC/C(=C\F)Cc1cccc(Cl)c1 (as salt: hydrochloride) ?
Return: 145 to 146 °C

Enquiry: Would you mind telling me what melting point value was observed for Cc1ccc(CC/C(=C\Cl)CN)cc1.Cl ?
Return: 124 to 125 °C

Enquiry: Would you mind telling me what melting point value was observed for CSc1cccc(C/C(=C/F)CN)c1 (as salt: hydrochloride) ?
Return: 145 to 146 °C

Enquiry: Would you mind telling me what melting point value was observed for NC/C(=C/F)CCc1cccc(F)c1.O=C(O)C(F)(F)F ?
Return: 72 to 73 °C

Enquiry: Would you mind telling me what melting point value was observed for CCCCOc1ccc(CC/C(=C/Cl)CN)cc1 (as salt: hydrochloride) ?
Return: 133 to 134 °C

Enquiry: Would you mind telling me what melting point value was observed for NC/C(=C/Cl)CCc1ccc(F)cc1.O=C(O)C(F)(F)F ?
Return: 52 to 53 °C

---

Molecular target: UniProt:O08590
Sequence (O08590 1-763): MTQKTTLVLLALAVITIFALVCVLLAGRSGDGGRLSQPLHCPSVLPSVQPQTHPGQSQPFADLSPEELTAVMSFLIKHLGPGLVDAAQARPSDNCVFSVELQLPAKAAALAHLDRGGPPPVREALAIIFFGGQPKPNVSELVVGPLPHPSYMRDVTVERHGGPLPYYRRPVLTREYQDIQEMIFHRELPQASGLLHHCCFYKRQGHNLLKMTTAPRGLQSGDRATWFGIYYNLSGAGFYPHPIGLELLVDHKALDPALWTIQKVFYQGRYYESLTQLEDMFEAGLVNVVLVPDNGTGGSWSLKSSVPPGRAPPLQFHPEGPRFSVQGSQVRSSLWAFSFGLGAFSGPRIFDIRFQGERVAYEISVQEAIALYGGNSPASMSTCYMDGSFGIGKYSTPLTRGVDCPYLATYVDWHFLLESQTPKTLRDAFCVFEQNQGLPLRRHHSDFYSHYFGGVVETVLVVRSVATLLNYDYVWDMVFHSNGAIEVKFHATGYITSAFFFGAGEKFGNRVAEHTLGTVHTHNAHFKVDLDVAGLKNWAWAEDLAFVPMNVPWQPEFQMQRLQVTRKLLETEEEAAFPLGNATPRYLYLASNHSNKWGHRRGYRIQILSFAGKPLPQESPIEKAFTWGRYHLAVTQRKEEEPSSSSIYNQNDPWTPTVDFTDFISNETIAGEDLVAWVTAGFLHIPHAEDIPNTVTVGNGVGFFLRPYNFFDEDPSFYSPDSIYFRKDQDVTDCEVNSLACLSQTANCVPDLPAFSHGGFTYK
Reported pIC50 values are given for each entry in this list.
Bear in mind: pIC50 is minus log10 of a mol/L concentration; give just that figure.

Use the examples below as a reference point.
1. CCOc1ccc(C/C(=C\F)CN)cc1.Cl [Compound I-2-E, hydrochloride] :: 8.10
2. COc1ccc(C/C(=C/F)CN)cc1.Cl [Compound I-1-Z, hydrochloride] :: 7.89
3. CCOc1ccc(C/C(=C/F)CN)cc1.Cl [Compound I-2-Z, hydrochloride] :: 8.30

Alright, here's another compound for you.
Enquiry: Under UniProt:O08590: pIC50 value of NC/C(F)=C\Cc1cc(F)cc(C(F)(F)F)c1 ?
Return: 7.42
